- assay protocol: chemical genetic growth profiling, strain panel (AID 1159580);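 note: tested at 20 µM; growth read once vehicle control cultures reached saturation at 30 °C; 1 = growth at the plate median or of vehicle wells; lower values mean less growth of the strain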
- condition description: S. cerevisiae deletion strains, growth OD, locus YNL020C, strain ARK1, hits give low values
Out of some 5,500 compounds screened, about 2,000 (36%) were called active. Another 18% or so got no clear call; they are omitted. The list shows a part of the results.
Classify: rule met when normalized growth is strictly less than 0.9; rule not met when normalized growth is not.

{"columns": ["compound", "class name"],
 "data": [
  ["COc1cccc(NC(=S)NC2CC(C)CC(C)(C)C2)c1 (configuration not stated)", "rule not met"],
  ["O=C(NCCc1ccncc1)c1ccc(Cl)c(Cl)c1", "rule not met"],
  ["CCCc1nc(-c2ccccn2)[nH]c(=O)c1CC1CC1", "rule not met"],
  ["Cc1ccc(C)c(CSc2nc(C3CCCCC3)c(C#N)c(=O)[nH]2)c1", "rule not met"],
  ["Nc1ccccc1C(=O)N/N=C\\c1cc(Br)ccc1O", "rule not met"],
  ["CCOC(=O)c1cc(CC)sc1NC(=O)c1ccc([N+](=O)[O-])o1", "rule met"]
]}

----------
- assay protocol: chemical genetic growth profiling, strain panel (AID 1159580);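 note: tested at 20 µM; growth read once vehicle control cultures reached saturation at 30 °C; 1 = growth at the plate median or of vehicle wells; lower values mean less growth of the strain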
- condition description: S. cerevisiae deletion strains, growth OD, locus YEL061C, strain CIN8, hits give low values
The whole screen tested about 5,500 compounds, of which about 2,000 (36%) were called active. Another 18% or so got no clear call; they are omitted. This is one part of the list.
Measured normalized growth of individual entries

{"columns": ["molecule", "normalized growth"],
 "data": [
  ["C[C@@H]1C(=O)O[C@H]2[C@H]1CC[C@@]1(C)C=CC(=O)[C@@]3(C)O[C@@]213", "1.01 (inactive)"],
  ["Nc1ccc(-n2nc(C(F)(F)F)cc2C(F)(F)F)cc1", "0.998 (inactive)"],
  ["CO[C@@]12[C@@H]3NC3CN1C1=C(C(=O)C(N)=C(C)C1=O)[C@@H]2COC(N)=O (stereo partly drawn)", "0.998 (inactive)"]
]}

----------
- assay protocol: chemical genetic growth profiling, strain panel (AID 1159580);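 note: tested at 20 µM; growth read once vehicle control cultures reached saturation at 30 °C; 1 = growth at the plate median or of vehicle wells; lower values mean less growth of the strain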
- condition description: S. cerevisiae deletion strains, growth OD, locus YGL167C, strain pmr1, hits give low values
The whole screen tested about 5,500 compounds, of which about 2,000 (36%) were called active. Another 18% or so got no clear call; they are omitted. This is one part of the list.
Measured normalized growth of individual entries
assay metric: normalized growth

{"columns": ["compound", "experimental result"],
 "data": [
  ["COC(=O)Nc1nc2ccc(S(=O)c3ccccc3)cc2[nH]1 (centres undefined)", 0.984],
  ["COC(=O)Nc1nc2ccc(C(=O)c3ccccc3)cc2[nH]1", 0.979],
  ["CCOC(=O)OC(C)OC(=O)C1N2C(=O)C(NC(=O)[C@H](N)c3ccccc3)C2SC1(C)C (some centres undefined)", 0.991],
  ["Cc1ccc(S(=O)(=O)NC(=O)NN2CC3CCCC3C2)cc1 (centres undefined)", 0.982],
  ["N#CC(O[C@@H]1O[C@H](CO[C@@H]2O[C@H](CO)[C@@H](O)[C@H](O)[C@H]2O)[C@@H](O)[C@H](O)[C@H]1O)c1ccccc1 (some centres undefined)", 0.98],
  ["FC(F)(F)c1ccccc1-n1ccnc1", 1.01],
  ["COC1=C[C@@H]2[C@@H]3Cc4ccc(OC)c(O)c4[C@]2(CCN3C)CC1=O", 0.986],
  ["O=c1ccc2ccc(O)cc2o1", 0.99],
  ["C#C[C@]1(O)CCC2C3CCC4=CC(=O)CC[C@@H]4C3CC[C@@]21CC (some centres undefined)", 0.995],
  ["Nc1c2ccccc2nc2ccccc12", 1.01],
  ["Nc1ccc(S(=O)(=O)Nc2ccnn2-c2ccccc2)cc1", 1],
  ["CCC(C)C(NC)C(=O)O (centres undefined)", 1.02],
  ["CCCOc1ccccc1-c1nc2n[nH]nc2c(=O)[nH]1", 1.01],
  ["C#C[C@]1(O)CCC2C3CCC4=C(CCC(=O)C4)C3CC[C@@]21C (some centres undefined)", 0.984],
  ["COc1ccc2c(c1)c(CC(=O)OCC(=O)O)c(C)n2C(=O)c1ccc(Cl)cc1", 0.987],
  ["CC(C)CC(N(C)C)C1(c2ccc(Cl)cc2)CCC1 (centres undefined)", 0.997],
  ["COc1cc(C(=O)NCCCCCC(=O)O)cc(OC)c1OC", 0.986],
  ["N=C(N)c1ccc(OCCCCCOc2ccc(C(=N)N)cc2)cc1", 0.974],
  ["Nc1ccccc1C(=O)CC(N)C(=O)O (centres undefined)", 0.997],
  ["CC(C)(Sc1cc(C(C)(C)C)c(O)c(C(C)(C)C)c1)Sc1cc(C(C)(C)C)c(O)c(C(C)(C)C)c1", 0.998],
  ["CCC(C)C(=O)O[C@H]1[C@H](O)C2C(CN3CC(C)CCC3[C@@]2(C)O)C2C[C@]34O[C@]5(O)C(OC(=O)C(C)(O)CC)CC[C@@]3(C)C5C(OC(C)=O)[C@@H](OC(C)=O)C4[C@@]21O (some centres undefined)", 1.01],
  ["CC(=O)NCc1c(I)c(NC(C)=O)c(I)c(C(=O)O)c1I", 0.992],
  ["Cc1cn([C@H]2C[C@H](N=[N+]=[N-])[C@@H](CO)O2)c(=O)[nH]c1=O", 1],
  ["COC(=O)C[C@H]1C(C)(C)C(=O)[C@@H]2CC3C4=CC(=O)O[C@@H](c5ccoc5)[C@]4(C)CCC3[C@@]1(C)C2=O (some centres undefined)", 0.977],
  ["C[C@]12CCC(=O)C=C1CCC1C2[C@@H](O)C[C@@]2(C)C1CC[C@]2(O)C(=O)CO (some centres undefined)", 0.987],
  ["COC(=O)Nc1nc2ccc(Sc3ccccc3)cc2[nH]1", 0.98],
  ["C[C@@H]1CC[C@H]2[C@@H](C)C(=O)O[C@@H]3O[C@@]4(C)CC[C@@H]1[C@]32OO4", 0.973],
  ["CCCCCCCCCCCCCCC(C(=O)O)C(O)(CC(=O)OC)C(=O)O (centres undefined)", 0.981],
  ["CC(C)(Oc1ccc(CCNC(=O)c2ccc(Cl)cc2)cc1)C(=O)O", 1]
]}
